Entry source: paper PMC9471048

Molecular target: human α2C‐adrenoceptor (Homo sapiens)
Sequence (P18825 1-462): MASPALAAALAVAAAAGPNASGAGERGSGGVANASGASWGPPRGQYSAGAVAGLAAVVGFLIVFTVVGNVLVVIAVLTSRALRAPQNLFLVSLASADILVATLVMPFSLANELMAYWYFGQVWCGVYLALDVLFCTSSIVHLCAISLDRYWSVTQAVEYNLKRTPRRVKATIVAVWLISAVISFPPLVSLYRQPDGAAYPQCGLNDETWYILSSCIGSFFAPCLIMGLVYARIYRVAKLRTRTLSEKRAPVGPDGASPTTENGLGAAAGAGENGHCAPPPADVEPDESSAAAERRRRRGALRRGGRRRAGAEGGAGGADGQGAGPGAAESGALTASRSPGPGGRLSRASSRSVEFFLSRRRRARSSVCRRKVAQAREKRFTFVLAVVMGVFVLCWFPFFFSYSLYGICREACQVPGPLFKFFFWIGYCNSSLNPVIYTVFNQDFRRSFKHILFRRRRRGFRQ
Conditions: CHO‐α2C cells, % inhibition from the 3 μM forskolin control, mean ± SEM
endpointName: % inhibition, CRE‐SPAP (with forskolin) (%)
Give bare numbers, in %.

Known value: human α2C‐adrenoceptor (Homo sapiens) % inhibition, CRE‐SPAP (with forskolin) of the compound COc1ccc(OC)c(C(O)C(C)N)c1 (stereo not drawn) equals 72.3

Parameter requested: % inhibition, CRE‐SPAP (with forskolin). Apply to each item below.
1. NCC(O)c1ccc(O)cc1 (stereo not drawn)
2. CCNCC(O)c1cccc(O)c1 (stereo not drawn)
3. C[C@H](N)[C@H](O)c1cccc(O)c1
4. CCN1CCc2nc(N)oc2CC1
5. c1ccc2c(CC3=NCCN3)cccc2c1
6. Clc1ccc2nsnc2c1NC1=NCCN1
7. c1ccc(C2CC2)c(OCC2=NCCN2)c1
8. c1ccc2c(c1)CCCC2C1=NCCN1 (stereo not drawn) [Tetrahydrozoline]

**Result**
86.3
86.2
85.5
86.0
81.3
72.1
74.2
60.7

Parameter requested: % inhibition, CRE‐SPAP (with forskolin). Apply to each item below.
1. C1=C(c2cnc[nH]2)c2ccsc2CC1
2. CS(=O)(=O)Nc1c(O)ccc2c1CCCC2C1=NCCN1 (stereo not drawn)
3. C1COC(NC(C2CC2)C2CC2)=N1

**Result**
76.5
80.5
69.0

----------
Field: % 3 μM forskolin, CRE‐SPAP (without forskolin). Provide a value for each of the compounds that follow.
Target: human α2A‐adrenoceptor (Homo sapiens)
Sequence (P08913 1-465): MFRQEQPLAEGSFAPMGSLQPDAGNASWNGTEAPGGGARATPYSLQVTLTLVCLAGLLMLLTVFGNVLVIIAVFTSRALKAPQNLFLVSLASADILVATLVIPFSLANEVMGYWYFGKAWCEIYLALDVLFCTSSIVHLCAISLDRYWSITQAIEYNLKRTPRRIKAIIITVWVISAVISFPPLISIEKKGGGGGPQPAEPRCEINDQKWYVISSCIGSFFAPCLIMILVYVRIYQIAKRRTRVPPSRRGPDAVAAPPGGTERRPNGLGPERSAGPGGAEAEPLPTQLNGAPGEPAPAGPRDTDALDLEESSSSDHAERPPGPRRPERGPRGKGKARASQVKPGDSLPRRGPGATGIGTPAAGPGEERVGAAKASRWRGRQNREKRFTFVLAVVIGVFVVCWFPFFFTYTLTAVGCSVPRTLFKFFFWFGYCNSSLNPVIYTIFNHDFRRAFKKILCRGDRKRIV
Answers are plain numbers, in %.

The examples below pair each entry with its known result.
Known value: human α2A‐adrenoceptor (Homo sapiens) % 3 μM forskolin, CRE‐SPAP (without forskolin) of the compound Cc1cccc(C(C)c2cnc[nH]2)c1C (stereo not shown) equals 23.1

Known value: human α2A‐adrenoceptor (Homo sapiens) % 3 μM forskolin, CRE‐SPAP (without forskolin) of the compound CC(N)C(O)c1ccc(O)c(O)c1 (stereo not drawn) [α‐methylnorepinephrine] equals 171.1

Known value: human α2A‐adrenoceptor (Homo sapiens) % 3 μM forskolin, CRE‐SPAP (without forskolin) of the compound Nc1cc(Cl)c(N=C2NCCN2)c(Cl)c1 equals 37.6

Consider the additional compound presented here.
Known value: human α2A‐adrenoceptor (Homo sapiens) % 3 μM forskolin, CRE‐SPAP (without forskolin) of the compound Cc1cccc([C@H](C)c2cnc[nH]2)c1C equals 23.6

----------
Target: human α2A‐adrenoceptor (Homo sapiens, UniProt P08913)
Sequence (P08913 1-465): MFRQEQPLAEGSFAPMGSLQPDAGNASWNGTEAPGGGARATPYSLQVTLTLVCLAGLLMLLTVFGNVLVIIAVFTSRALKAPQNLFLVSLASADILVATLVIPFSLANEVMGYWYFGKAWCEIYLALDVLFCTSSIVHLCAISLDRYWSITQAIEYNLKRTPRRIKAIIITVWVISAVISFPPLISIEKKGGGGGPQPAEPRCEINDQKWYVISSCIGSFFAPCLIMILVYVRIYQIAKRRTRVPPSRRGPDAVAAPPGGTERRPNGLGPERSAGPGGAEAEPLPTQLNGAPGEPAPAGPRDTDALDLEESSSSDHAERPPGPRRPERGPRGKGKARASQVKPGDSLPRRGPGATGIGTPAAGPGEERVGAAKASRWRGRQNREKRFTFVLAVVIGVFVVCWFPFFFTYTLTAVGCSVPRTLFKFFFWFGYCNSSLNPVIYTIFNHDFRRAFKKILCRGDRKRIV
endpointName: Log EC50 (Gs), CRE‐SPAP (without forskolin)
Numbers only.

GET /value?item= CC(N)C(O)c1ccc(O)c(O)c1 (stereo not drawn) [α‐methylnorepinephrine] &field=Log EC50 (Gs), CRE‐SPAP (without forskolin) returns −5.29

Continuing:
GET /value?item= Nc1cc(Cl)c(N=C2NCCN2)c(Cl)c1 [Para‐amino‐clonidine] &field=Log EC50 (Gs), CRE‐SPAP (without forskolin) returns −6.55

----------
molecular target: human α2C‐adrenoceptor (Homo sapiens, UniProt P18825); assay: 3H‐rauwolscine whole cell binding in CHO‐α2C cells; set-up: expressed in transfected cells; host or cells: CHO-K1 with CRE-SPAP reporter; conditions: 3H‐rauwolscine whole cell binding, living cells; negative log KD, mean ± SEM; read-out: Log KD, CHO‐α2C (converted)
Rule: Kd below 0.9 µM gives Criterion met, anything at or above gives Criterion not met.

Sample answers from the record:
**Query** Please let me know if c1ccc2c(c1)CCCC2C1=NCCN1 (centres unmarked) [Tetrahydrozoline] shows Kd below 0.9 µM.
**Result** Criterion met

**Query** Please let me know if c1ccc2c(CC3=NCCN3)cccc2c1 [Naphazoline] shows Kd below 0.9 µM.
**Result** Criterion met

**Query** Please let me know if C1COC(NC(C2CC2)C2CC2)=N1 [Rilmenidine] shows Kd below 0.9 µM.
**Result** Criterion not met

# input for lookup
**Query** Please let me know if C[C@H](N)[C@H](O)c1cccc(O)c1 [Metaraminol] shows Kd below 0.9 µM.
**Result** Criterion not met

----------
Field: IC50. Provide a value for each of the molecules that follow.
molecular target: human α2A‐adrenoceptor (Homo sapiens)
Numbers only, in nM.

The examples below pair each entry with its known result.
GET /value?item= Cc1cc(C(C)(C)C)cc(C)c1CC1=NCCN1 &field=IC50 returns 7.41

GET /value?item= NCC(O)c1ccc(O)cc1 (stereo not drawn) &field=IC50 returns 132000

GET /value?item= c1ccc(C2CC2)c(OCC2=NCCN2)c1 &field=IC50 returns 603

GET /value?item= Cc1cccc(C)c1N=C1NCCCS1 &field=IC50 returns 288

GET /value?item= CNCC(O)c1ccc(O)cc1 (stereo not drawn) [Synephrine] &field=IC50 returns 9550

Consider the additional molecule presented here.
GET /value?item= C[C@H](N)[C@H](O)c1cccc(O)c1 &field=IC50 returns 3160

----------
Molecular target: human α2C‐adrenoceptor (Homo sapiens, UniProt P18825)
Sequence (P18825 1-462): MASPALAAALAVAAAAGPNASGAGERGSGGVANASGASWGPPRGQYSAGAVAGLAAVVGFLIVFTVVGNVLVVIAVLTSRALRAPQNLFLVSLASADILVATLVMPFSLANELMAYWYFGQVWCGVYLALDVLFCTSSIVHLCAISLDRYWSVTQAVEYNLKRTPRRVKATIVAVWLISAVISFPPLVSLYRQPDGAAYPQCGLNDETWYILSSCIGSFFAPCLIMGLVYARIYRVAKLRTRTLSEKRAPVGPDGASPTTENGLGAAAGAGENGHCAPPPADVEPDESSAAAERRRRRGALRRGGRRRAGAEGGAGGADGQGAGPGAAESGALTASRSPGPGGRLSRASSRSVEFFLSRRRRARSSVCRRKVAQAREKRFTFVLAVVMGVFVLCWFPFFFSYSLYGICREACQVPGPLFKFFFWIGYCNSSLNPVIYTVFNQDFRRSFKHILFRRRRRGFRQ
Field: pIC50. Provide a value for each of the compounds that follow.
Give bare numbers, as −log10 of the molar value.

Parameter requested: pIC50. Apply to each item below.
1. CC(CCc1ccc(O)cc1)NCCc1ccc(O)c(O)c1 (stereo not drawn)
2. C[C@H](N)[C@H](O)c1cccc(O)c1
3. NCC(O)c1ccc(O)cc1 (stereo not drawn)
4. Cc1cccc(C)c1N=C1NCCCS1
5. Cc1cc(C(C)(C)C)cc(C)c1CC1=NCCN1
6. CCC1(c2cnc[nH]2)Cc2ccccc2C1

**Result**
1: 4.68; 2: 6.10; 3: 4.28; 4: 6.75; 5: 7.20; 6: 6.70

Parameter requested: pIC50. Apply to each item below.
1. C=CCc1ccccc1OC(C)C1=NCCN1 (stereo not drawn)
2. CNCC(O)c1ccc(O)cc1 (stereo not drawn) [Synephrine]

**Result**
[7.20, 4.46]

GET /value?item= NC[C@H](O)c1ccc(O)c(O)c1 &field=pIC50 returns 6.51
